# System: azoreductase
# Run description: Drug metabolism assessed as Clostridium perfringens azoreductase-mediated reduction at 6 hrs by HPLC analysis
# Type: ADME
# Particulars: read-out: Drug metabolism

>  <Chemical structure>
C[C@]12C=CC(=O)C=C1CC[C@@H]1[C@@H]2[C@@H](O)C[C@@]2(C)[C@H]1CC[C@]2(O)C(=O)COC(=O)CCc1ccccc1/N=N/c1ccc(C(=O)O)cc1

>  <Target>
azoreductase

>  <Readout unit>
%

>  <metabolised at 6 h>
55

$$$$
